pIC50 values by entry
biological target: E35D↑G↑S mutant HIV-1 subtype C protease (Human immunodeficiency virus type 1 group M subtype C, UniProt Q994Q3, D118E/E93D/I94G/INS93GS); assay: biochemical; details: E35D↑G↑S IC50, mutant E35D↑G↑S, n = 3
// scale note: pIC50 = -log10(conc_M); give the bare number

| item smiles | pIC50 |
| --- | --- |
| Cc1c(O)cccc1C(=O)N[C@@H](CSc1ccccc1)[C@H](O)CN1C[C@H]2CCCC[C@H]2C[C@H]1C(=O)NC(C)(C)C | 5.85 |
| CC(C)(C)NC(=O)[C@@H]1CN(Cc2cccnc2)CCN1C[C@@H](O)C[C@@H](Cc1ccccc1)C(=O)N[C@H]1c2ccccc2C[C@H]1O | 7.47 |

--- query ---
*Q* Find the measured pIC50 of CC(C)CN(C[C@@H](O)[C@H](Cc1ccccc1)NC(=O)O[C@H]1CCOC1)S(=O)(=O)c1ccc(N)cc1 and report it.
*A* 8.39

---

molecular target: E35D↑G↑S mutant HIV-1 subtype C protease (Human immunodeficiency virus type 1 group M subtype C, UniProt Q994Q3, D118E/E93D/I94G/INS93GS); assay: biochemical; details: v = (Ki × Kcat/Km)MUT/(Ki × Kcat/Km)WT, wild type as reference
measured metric: log vitality

*Q* Find the measured log vitality of Cc1cccc(C)c1OCC(=O)N[C@@H](Cc1ccccc1)[C@@H](O)C[C@H](Cc1ccccc1)NC(=O)[C@H](C(C)C)N1CCCNC1=O and report it.
*A* ~1.00

---

Target: E35D↑G↑S mutant HIV-1 subtype C protease (Human immunodeficiency virus type 1 group M subtype C, UniProt Q994Q3, D118E/E93D/I94G/INS93GS)
Conditions: mutant-wild type
Protocol: Quenching experiments were performed according to the method reported by Maseko et al.[15]. […] The excitation wavelength was fixed at 295 nm, the wavelength at which tryptophan absorbs and the emission wavelength measured was at […]. The change in fluorescence of a solution was monitored over 10 min, as increasing concentrations of inhibitors were added to a reaction mixture of HIV protease in 50 mM sodium acetate, 1 M NaCl, pH 5 in a final volume of 100 µ. […]
measured metric: −TΔΔS
The reply should be a number, written without any unit.

| item smiles | assay value |
| --- | --- |
| CC(C)CN(C[C@@H](O)[C@H](Cc1ccccc1)NC(=O)O[C@H]1CCOC1)S(=O)(=O)c1ccc(N)cc1 | 12.1 |

*Q* Find the measured −TΔΔS of CC(C)c1nc(CN(C)C(=O)N[C@H](C(=O)N[C@@H](Cc2ccccc2)C[C@H](O)[C@H](Cc2ccccc2)NC(=O)OCc2cncs2)C(C)C)cs1 and report it.
*A* 5.8

*Q* Find the measured −TΔΔS of CC(C)CN(C[C@@H](O)[C@H](Cc1ccccc1)NC(=O)O[C@H]1CO[C@H]2OCC[C@H]21)S(=O)(=O)c1ccc(N)cc1 and report it.
*A* −1.8

*Q* Find the measured −TΔΔS of CC(C)(C)NC(=O)[C@@H]1CN(Cc2cccnc2)CCN1C[C@@H](O)C[C@@H](Cc1ccccc1)C(=O)N[C@H]1c2ccccc2C[C@H]1O and report it.
*A* 1.8
